molecular target: T1, Human PCSK9 Alexa Fluor 647 (human, UniProt Q8NBP7 31-692, limits assumed, Alexa Fluor 647 label (site not stated)); test: TR-FRET competition: PCSK9-Alexa Fluor 647 vs LDLR ECD-Eu kryptate
T1 construct: Labelled tracer of the TR-FRET assay, 16 nM stock; also called proprotein convertase subtilisin/kexin type 9
T1 sequence (Q8NBP7 31-692 limits assumed): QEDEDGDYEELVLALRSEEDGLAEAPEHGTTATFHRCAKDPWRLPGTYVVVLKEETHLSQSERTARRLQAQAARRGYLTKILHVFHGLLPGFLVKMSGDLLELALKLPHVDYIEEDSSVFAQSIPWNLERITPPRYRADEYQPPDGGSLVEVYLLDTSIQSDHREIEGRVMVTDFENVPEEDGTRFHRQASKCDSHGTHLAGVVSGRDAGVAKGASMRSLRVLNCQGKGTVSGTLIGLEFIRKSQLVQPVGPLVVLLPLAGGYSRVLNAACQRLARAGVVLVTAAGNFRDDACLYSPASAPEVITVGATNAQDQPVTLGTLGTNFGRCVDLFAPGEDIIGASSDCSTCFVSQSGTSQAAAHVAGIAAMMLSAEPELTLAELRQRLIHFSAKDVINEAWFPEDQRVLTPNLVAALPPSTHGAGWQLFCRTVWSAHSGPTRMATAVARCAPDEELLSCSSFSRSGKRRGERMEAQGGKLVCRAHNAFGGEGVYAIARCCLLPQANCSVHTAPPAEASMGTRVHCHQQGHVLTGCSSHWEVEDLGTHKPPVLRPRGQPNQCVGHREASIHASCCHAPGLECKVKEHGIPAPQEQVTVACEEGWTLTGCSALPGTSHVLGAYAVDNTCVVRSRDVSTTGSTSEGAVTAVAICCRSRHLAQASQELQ
Bridge positions count the residues as written; N and C are the ends. Square brackets hold non-standard residues; d marks the D form. Phe(4-Cl) = N[C@@H](Cc1ccc(Cl)cc1)C(=O)O; NMeA = CN[C@@H](C)C(=O)O
property.measured: IC50 (nM)
Numbers only, in nM.

Incoming: Query: IC50; subject: {CH2CO}-FVPTTV[NMeA][Phe(4-Cl)][NMeA]EAPC-NH2 (thioether N-13; SMILES CC(C)[C@@H]1NC(=O)[C@H]([C@@H](C)O)NC(=O)[C@H]([C@@H](C)O)NC(=O)[C@@H]2CCCN2C(=O)[C@H](C(C)C)NC(=O)[C@H](Cc2ccccc2)NC(=O)CSC[C@@H](C(N)=O)NC(=O)[C@@H]2CCCN2C(=O)[C@H](C)NC(=O)[C@H](CCC(=O)O)NC(=O)[C@H](C)N(C)C(=O)[C@H](Cc2ccc(Cl)cc2)NC(=O)[C@H](C)N(C)C1=O, also called 2-6; Ex. No. 2-6) [Ac*-F-V-P-T-T-V-(N-Me)A-(p-Cl)F-(N-Me)A-E-A-P-C*-NH2]
Outgoing: 5.4
